Data provenance is the NIST ThermoML archive (doi:10.1021/je900757k).

Below: a set of entries, each annotated with reported isobaric coefficient of expansion.
- assay protocol: isobaric coefficient of expansion
- test context: 288.15 K; 50000 kPa; Liquid; DSC

chem smiles: ClC(Cl)(Cl)Cl
isobaric coefficient of expansion: 0.000949 1/K
--
chem smiles: CCCCCCCCCCCCC
isobaric coefficient of expansion: 0.000744 1/K
--
chem smiles: CCCCCCCCCCC
isobaric coefficient of expansion: 0.000773 1/K
--
chem smiles: CCCCCCCCC
isobaric coefficient of expansion: 0.000819 1/K
--
chem smiles: CCCCCCCCCC
isobaric coefficient of expansion: 0.000797 1/K
--
chem smiles: CCCCCCCCCCCC
isobaric coefficient of expansion: 0.000761 1/K

----------
- assay protocol: isobaric coefficient of expansion
- test context: 278.15 K; 30000 kPa; Liquid; DSC
Below is a list of entries, each paired with its recorded isobaric coefficient of expansion value.
measured property: isobaric coefficient of expansion

chem smiles: CCCCCCCCCCCC
measured property: isobaric coefficient of expansion
result: 0.000821 1/K
--
chem smiles: ClC(Cl)(Cl)Cl
measured property: isobaric coefficient of expansion
result: 0.00102 1/K
--
chem smiles: CCCCCCCCCC
measured property: isobaric coefficient of expansion
result: 0.000859 1/K
--
chem smiles: CCCCCCCCCCC
measured property: isobaric coefficient of expansion
result: 0.000836 1/K
--
chem smiles: CCCCCCCCC
measured property: isobaric coefficient of expansion
result: 0.000886 1/K

----------
- assay protocol: isobaric coefficient of expansion
- test context: 288.15 K; 20000 kPa; Liquid; DSC
measured property: isobaric coefficient of expansion

molecule: CCCCCCCCCC [decane]
measured property: isobaric coefficient of expansion
result: 0.000907 1/K

molecule: ClC(Cl)(Cl)Cl [tetrachloromethane]
measured property: isobaric coefficient of expansion
result: 0.00108 1/K

molecule: CCCCCCCCC [nonane]
measured property: isobaric coefficient of expansion
result: 0.00094 1/K

molecule: CCCCCCCCCCC [undecane]
measured property: isobaric coefficient of expansion
result: 0.000879 1/K

molecule: CCCCCCCCCCCC [dodecane]
measured property: isobaric coefficient of expansion
result: 0.00086 1/K

molecule: CCCCCCCCCCCCC [tridecane]
measured property: isobaric coefficient of expansion
result: 0.000827 1/K

----------
The following compounds are listed with their measured isobaric coefficient of expansion values.
- assay protocol: isobaric coefficient of expansion
- test context: 298.15 K; 50000 kPa; Liquid; DSC

compound: CCCCCCCCCCCC [dodecane]
isobaric coefficient of expansion: 0.00076 1/K
//
compound: CCCCCCCCCCCCCC [tetradecane]
isobaric coefficient of expansion: 0.000737 1/K
//
compound: c1ccccc1 [benzene]
isobaric coefficient of expansion: 0.000971 1/K
//
compound: CCCCCCCCC [nonane]
isobaric coefficient of expansion: 0.000819 1/K
//
compound: ClC(Cl)(Cl)Cl [tetrachloromethane]
isobaric coefficient of expansion: 0.000955 1/K
//
compound: CCCCCCCCCC [decane]
isobaric coefficient of expansion: 0.000794 1/K
//
compound: CCCCCCCCCCC [undecane]
isobaric coefficient of expansion: 0.000773 1/K
//
compound: CCCCCCCCCCCCCCC [pentadecane]
isobaric coefficient of expansion: 0.00073 1/K
//
compound: CCCCCCCCCCCCC [tridecane]
isobaric coefficient of expansion: 0.000744 1/K
